Where do the numbers come from? From PubChem BioAssay (NCI).

- Tested on: SNB-75 CNS
- test_summary: NCI-60 one-dose screen, 48 h (100 = growth as untreated, 0 = no growth, -100 = all killed)
- reported_conditions: 10 µM unless noted
About 83,000 compounds went through this panel and 20% of them were active in at least one assay; those are over-represented in the sample as a whole.
The label rule met is reserved for growth strictly under 70%; rule not met covers values equal to or above it.

>  <compound>
Cc1cccc(N2CCC(=O)NC2=S)c1

>  <tested_system>
SNB-75 CNS

>  <assigned_label>
rule not met

$$$$
>  <compound>
O=S(=O)(Oc1ccc(Br)cc1)c1ccc(Cl)cc1

>  <tested_system>
SNB-75 CNS

>  <assigned_label>
rule not met

$$$$
>  <compound>
O=C(C1=Cc2cc3ccccc3n2Cc2cnnn21)c1ccc(O)cc1

>  <tested_system>
SNB-75 CNS

>  <assigned_label>
rule met

$$$$
>  <compound>
COC(=O)c1cc(Br)ccc1O

>  <tested_system>
SNB-75 CNS

>  <assigned_label>
rule not met

$$$$
>  <compound>
COc1cc(/C=N/Nc2ccc(Br)cc2)cc(OC)c1OC

>  <tested_system>
SNB-75 CNS

>  <assigned_label>
rule not met

$$$$
>  <compound>
COc1ccc(C#Cc2ccc(=O)oc2-c2cc(OC)c(OC)c(OC)c2)cc1O

>  <tested_system>
SNB-75 CNS

>  <assigned_label>
rule met

$$$$
>  <compound>
COC(=O)c1ccc(NC(=O)Nc2ccc(C(=O)OC)cc2)cc1

>  <tested_system>
SNB-75 CNS

>  <assigned_label>
rule not met

$$$$
>  <compound>
CN1CCN(Cc2ccc(NC(=O)c3cncc(C#Cc4cnc(N)c5ccc(F)cc45)c3)cc2C(F)(F)F)CC1

>  <tested_system>
SNB-75 CNS

>  <assigned_label>
rule met

$$$$
>  <compound>
O=C(NC1CC(F)C1)c1cc2cccnc2n1-c1ccc(Cl)c(Cl)c1 (stereo unspecified)

>  <tested_system>
SNB-75 CNS

>  <assigned_label>
rule not met

$$$$
>  <compound>
O=C(Oc1ccc(CCl)cc1)c1ccccc1

>  <tested_system>
SNB-75 CNS

>  <assigned_label>
rule met

$$$$

###

- Test system: SW-620 colon
- test_summary: NCI-60 one-dose screen, 48 h
- reported_conditions: 10 µM unless noted
- Method: Growth inhibition of the SW-620 human tumor cell line is measured as a screen for anti-cancer activity. Cells are grown in 96 well plates and exposed to the test compound for 48 hours. Compounds are tested at a single concentration, which is 10^-5 M for most compounds. The reported endpoint is percent growth (GI% or GIPRCNT), where numbers from 0 - 100% represent growth inhibition, and numbers from -100% - 0 represent cell death. For example, a value of 40 represents 60% growth inhibition. […]
Compounds without any hit were thinned out: in the full panel of roughly 83,000, 20% have a hit. The source made the active and inactive calls. Rule for the calls: active = growth percent below 10; inactive = the rest.
Classes used: true (1) for active, false (0) for inactive

>  <compound>
O=C1/C(=C/c2ccccc2F)CN(C(=O)C(Cl)Cl)C/C1=C\c1ccccc1F

>  <tested_system>
SW-620 colon

>  <assigned_label>
true (1)

$$$$
>  <compound>
COc1cccc(CNc2c3ccccc3nc3ccccc23)c1

>  <tested_system>
SW-620 colon

>  <assigned_label>
false (0)

$$$$
>  <compound>
C=CC(=O)Nc1ccc(Nc2nccc(-c3ccc(N4CCCC4)c(C#N)c3)n2)cc1

>  <tested_system>
SW-620 colon

>  <assigned_label>
true (1)

$$$$
>  <compound>
CN1CCN(c2ccc3nc4c(nc3c2C(F)(F)F)C(=O)c2ncccc2C4=O)CC1

>  <tested_system>
SW-620 colon

>  <assigned_label>
true (1)

$$$$
>  <compound>
O=C(NNc1cnccn1)c1nc2cc(F)ccc2n2cccc12

>  <tested_system>
SW-620 colon

>  <assigned_label>
false (0)

$$$$
>  <compound>
C#CCO[C@H]1CC(CC#C)(CC#C)C(=O)[C@@H]2[C@H]1[C@H]1C[C@@H]3[C@@]4(C)CCC[C@@](C)(C(=O)OC)[C@@H]4CC[C@@]23C=C1C(C)C

>  <tested_system>
SW-620 colon

>  <assigned_label>
false (0)

$$$$
>  <compound>
O=C(NCc1cccc(CNC(=O)Nc2nc3ccccc3[nH]2)c1)Nc1nc2ccccc2[nH]1

>  <tested_system>
SW-620 colon

>  <assigned_label>
true (1)

$$$$
>  <compound>
COCCn1cc(-c2csc(-c3c[nH]c4ccc(Br)cc34)n2)c2cccnc21

>  <tested_system>
SW-620 colon

>  <assigned_label>
false (0)

$$$$
>  <compound>
CCOC(=O)C1=C(C)C(Cl)=N/C1=C\c1[nH]c(Cl)c(C)c1C(=O)OCC

>  <tested_system>
SW-620 colon

>  <assigned_label>
false (0)

$$$$
>  <compound>
COc1cc(-c2nc3cc(Cl)c(Cl)cc3[nH]2)ccc1OCC(=O)N=Nc1c(O)[nH]c2ccc(Cl)cc12

>  <tested_system>
SW-620 colon

>  <assigned_label>
true (1)

$$$$
>  <compound>
COc1ccc(/C=C/C(c2cc(OC)c(OC)c(OC)c2)n2ccnc2)cc1O (stereo not given)

>  <tested_system>
SW-620 colon

>  <assigned_label>
false (0)

$$$$
>  <compound>
O=C(N=Nc1c(O)[nH]c2ccccc12)Nc1ccc(F)cc1

>  <tested_system>
SW-620 colon

>  <assigned_label>
false (0)

$$$$
>  <compound>
COc1ccccc1N(C(C)=O)C1=C(Cl)C(=O)c2ccccc2C1=O

>  <tested_system>
SW-620 colon

>  <assigned_label>
true (1)

$$$$
>  <compound>
O=C(/C=C/c1ccc(Oc2ccc(Br)cc2)cc1)c1ccc(Br)cc1

>  <tested_system>
SW-620 colon

>  <assigned_label>
false (0)

$$$$
>  <compound>
COc1cc(OC)cc(-c2ccc(-c3ccc(C(=N)N)o3)o2)c1

>  <tested_system>
SW-620 colon

>  <assigned_label>
true (1)

$$$$
>  <compound>
O=C(Cc1cccc(OC(F)(F)F)c1)Nc1ccc(CCCCc2nnc(NC(=O)Cc3ccccn3)s2)nn1

>  <tested_system>
SW-620 colon

>  <assigned_label>
false (0)

$$$$
>  <compound>
CCN1C2CCC1/C(=C\c1ccc(F)cc1)C(=O)/C2=C/c1ccc(F)cc1

>  <tested_system>
SW-620 colon

>  <assigned_label>
false (0)

$$$$
>  <compound>
COc1ccc(C2=CC(c3cc(OC)c(OC)c(OC)c3)n3ncnc3N2)cc1 (stereo not given)

>  <tested_system>
SW-620 colon

>  <assigned_label>
false (0)

$$$$
>  <compound>
C=C1C(=O)O[C@H]2[C@H]1CC/C(COC(=O)CSCSCC(=O)OC/C1=C/CC[C@@]3(C)O[C@H]3[C@H]3OC(=O)C(=C)[C@@H]3CC1)=C\CC[C@@]1(C)O[C@@H]21

>  <tested_system>
SW-620 colon

>  <assigned_label>
true (1)

$$$$
>  <compound>
Cc1ccccc1Nc1cc(O)c2c(=O)cc(-c3ccccc3)oc2c1

>  <tested_system>
SW-620 colon

>  <assigned_label>
false (0)

$$$$
>  <compound>
O=C(Nc1ncc(Cc2ccccc2)s1)c1ccc2c(c1)OCCCO2

>  <tested_system>
SW-620 colon

>  <assigned_label>
false (0)

$$$$
>  <compound>
N#CSc1c[nH]c2cccc(/C=C/C(=O)/C=C(O)/C=C/c3cccc4[nH]cc(SC#N)c34)c12

>  <tested_system>
SW-620 colon

>  <assigned_label>
true (1)

$$$$
>  <compound>
CN1CCN(C(=O)C(C)(C)c2ccc(C(=O)Nc3cn4cc(-c5ccncc5)ccc4n3)cc2)CC1

>  <tested_system>
SW-620 colon

>  <assigned_label>
false (0)

$$$$
>  <compound>
COc1ccc(C(=O)/C=C/c2ccc(N3CCCCC3)cc2)cc1OC

>  <tested_system>
SW-620 colon

>  <assigned_label>
false (0)

$$$$
>  <compound>
COc1ccc(Nc2ncccc2/C=C/C(=O)c2cc(OC)c(OC)c(OC)c2)cc1

>  <tested_system>
SW-620 colon

>  <assigned_label>
true (1)

$$$$
>  <compound>
CC(C)(C)n1cc(-c2ccnc(NCCNS(=O)(=O)c3ccc(O)cc3)c2)c(-c2cccc(O)c2)n1

>  <tested_system>
SW-620 colon

>  <assigned_label>
false (0)

$$$$
>  <compound>
O=C1/C(=C/c2ccc(O)c(O)c2)COc2ccc(-c3ccccc3)cc21

>  <tested_system>
SW-620 colon

>  <assigned_label>
true (1)

$$$$
>  <compound>
Cc1ccc(-c2nc(N3CCNCC3)c3oc(-c4ccc(C)cc4)nc3n2)cc1

>  <tested_system>
SW-620 colon

>  <assigned_label>
true (1)

$$$$
>  <compound>
COc1ccc2nc(Cl)c(/C=C3\CC(c4ccccc4)=NN(c4ccccc4)C3=O)cc2c1

>  <tested_system>
SW-620 colon

>  <assigned_label>
false (0)

$$$$
>  <compound>
N#C/C(=C\c1ccc(-c2cccc(C(F)(F)F)c2)o1)c1ccccc1

>  <tested_system>
SW-620 colon

>  <assigned_label>
false (0)

$$$$
>  <compound>
CC1(C)[C@@H](O[C@@H]2OC[C@@H](O[C@@H]3O[C@H](CO)[C@@H](O)[C@H](O)[C@H]3O[C@@H]3OC[C@@H](O)[C@H](O)[C@H]3O)[C@H](O)[C@H]2O[C@@H]2O[C@H](CO)[C@@H](O)[C@H](O)[C@H]2O)CC[C@]2(C)[C@H]3CC[C@]45OC[C@@]6(CC[C@](C)(C=O)C[C@H]64)[C@H](O)C[C@@]5(C)[C@]3(C)CC[C@@H]12

>  <tested_system>
SW-620 colon

>  <assigned_label>
true (1)

$$$$
>  <compound>
CCOC(=O)C(=Cc1ccc(-c2ccccc2)cc1)C(=O)OCC

>  <tested_system>
SW-620 colon

>  <assigned_label>
false (0)

$$$$
>  <compound>
O=C(NNC(=O)c1nc2cc(F)ccc2n2cccc12)c1cnccn1

>  <tested_system>
SW-620 colon

>  <assigned_label>
false (0)

$$$$
>  <compound>
CCn1cc(CNc2ccc(C(=O)Nc3cc4cc(OC)c(OC)cc4c(C)n3)cc2)cn1

>  <tested_system>
SW-620 colon

>  <assigned_label>
false (0)

$$$$
>  <compound>
C=C1C(=O)O[C@H]2[C@H]1CC/C(COC(=O)NCc1ccc(Cn3c(=O)sn(-c4ccc(C#N)cc4)c3=O)cc1)=C\CC[C@@]1(C)O[C@@H]21

>  <tested_system>
SW-620 colon

>  <assigned_label>
false (0)

$$$$
